These measurements were taken from patent US20100087371.

Activity towards hGHQ141N (RFU/sec/µg), dansyl-cadaverine incorporation values, listed per item
- target: hGHQ141N, P01241
- Sequence (P01241 27-217 Q167N): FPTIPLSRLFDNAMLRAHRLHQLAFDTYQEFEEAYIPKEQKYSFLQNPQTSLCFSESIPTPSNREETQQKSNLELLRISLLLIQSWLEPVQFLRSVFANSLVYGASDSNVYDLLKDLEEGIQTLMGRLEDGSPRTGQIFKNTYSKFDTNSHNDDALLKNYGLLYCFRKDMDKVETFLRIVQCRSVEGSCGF
Respond with the bare value in RFU/sec/µg.

## Input Item Met-mTGase from S. ladakanum (protein) MDSDERVTPPAEPLDRMPDPYRPSYGRAETIVNNYIRKWQQVYSHRDGRKQQMTEEQREWLSYGCVGVTWVNSGQYPTNRLAFAFFDEDKYKNELKNGRPRSGETRAEFEGRVAKDSFDEAKGFQRARDVASVMNKALENAHDEGAYLDNLKKELANGNDALRNEDARSPFYSALRNTPSFKDRNGGNHDPSKMKAVIYSKHFWSGQDRSGSSDKRKYGDPEAFRPDRGTGLVDMSRDRNIPRSPTSPGESFVNFDYGWFGAQTEADADKTVWTHGNHYHAPNGSLGAMHVYESKFRNWSDGYSDFDRGAYVVTFVPKSWNTAPDKVKQGWP : provide Activity towards hGHQ141N (RFU/sec/µg), dansyl-cadaverine incorporation
## Output 0.8

## Input Item AlaPro-mTGase from S. ladakanum (protein) APDSDERVTPPAEPLDRMPDPYRPSYGRAETIVNNYIRKWQQVYSHRDGRKQQMTEEQREWLSYGCVGVTWVNSGQYPTNRLAFAFFDEDKYKNELKNGRPRSGETRAEFEGRVAKDSFDEAKGFQRARDVASVMNKALENAHDEGAYLDNLKKELANGNDALRNEDARSPFYSALRNTPSFKDRNGGNHDPSKMKAVIYSKHFWSGQDRSGSSDKRKYGDPEAFRPDRGTGLVDMSRDRNIPRSPTSPGESFVNFDYGWFGAQTEADADKTVWTHGNHYHAPNGSLGAMHVYESKFRNWSDGYSDFDRGAYVVTFVPKSWNTAPDKVKQGWP : provide Activity towards hGHQ141N (RFU/sec/µg), dansyl-cadaverine incorporation
## Output 1.02
